Recorded values, source the supplement of paper PMC12350171.

The entries below come with measured growth AUC normalised to DMSO control values attached.
system: Yersinia pseudotuberculosis; assay: growth AUC normalised to DMSO control (fraction of control); higher = less growth inhibition, active = hit call of the paper; details: 20 µM
Where a name gives a salt, the structure may show the parent alone.
Keep it simple and answer with nothing but the number.

[[record]]
compound = "CN(C)CCOC(=O)C(c1ccccc1)C1(O)CCCC1 (stereo not given) [Cyclopentolate hydrochloride]"
reading = 1.02


Value wanted: growth AUC normalised to DMSO control (Yersinia pseudotuberculosis) of entry CC(=O)N(CC(C)C(=O)O)c1c(I)cc(I)c(N)c1I (stereo not given) [Iocetamic acid]
0.99

Same question, O=C(CCNNC(=O)c1ccncc1)NCc1ccccc1 [Nialamide] this time
1.01

Same question, CC1=C(/C=C/C(C)=C/C=C/C(C)=C/C(=O)O)C(C)(C)CCC1 [Retinoic acid] this time
0.998

---

tested on: P. vulgatus RND KO; assay: growth AUC normalised to DMSO control (median) (fraction of control); higher = less growth inhibition, active = hit call of the paper; details: 20 µM;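 note: active when median AUC fell below 0.1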
Structures can show the parent of a compound that is named as a salt.
The entries below come with measured growth AUC normalised to DMSO control values attached.
Keep it simple and answer with nothing but the number.

[[record]]
molecule = "CN[C@@H]1[C@@H](O)[C@@H](O[C@@H]2[C@@H](O)[C@H](O[C@H]3OC(CN)=CC[C@H]3N)[C@@H](N)C[C@H]2N)OC[C@]1(C)O [Sisomicin sulfate]"
reading = 0.994


# evaluate next
// returns reported growth AUC normalised to DMSO control for input c1ccc(-c2ccc(C(c3ccccc3)n3ccnc3)cc2)cc1 (configuration not stated)
0.983

---

test system: P. vulgatus RND KO; assay: growth AUC normalised to DMSO control (median) (fraction of control); higher = less growth inhibition, active = hit call of the paper; settings: 20 µM;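 note: active when median AUC fell below 0.1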
Counter-ions that a name gives are not always drawn.
// classify into True = active, False = inactive

Reference set (3 entries):
[[record]]
molecule = "CC1CC(OC(=O)c2ccccc2O)CC(C)(C)C1 (centres undefined) [Homosalate]"
grouplabel = "False"

[[record]]
molecule = "COc1ccccc1OCC(O)COC(N)=O (centres undefined)"
grouplabel = "False"

[[record]]
molecule = "COc1cc(N)c(Cl)cc1C(=O)NC1CCN(Cc2ccccc2)CC1 [Clebopride maleate]"
grouplabel = "False"


Recorded call for CC1COc2c(N3CCN(C)CC3)c(F)cc3c(=O)c(C(=O)O)cn1c23 (centres undefined) ?
True

Same question, CN1CCCCC1CCN1c2ccccc2Sc2ccc([S+](C)[O-])cc21 (centres undefined) [Mesoridazine besylate] this time
False

Same question, COc1ccc(C(=O)c2ccc(C)cc2)c(O)c1 this time
False

Same question, O=C(O)Cc1sc(-c2ccccc2)nc1-c1ccc(Cl)cc1 this time
False

Same question, CN1CCC(=C2c3ccccc3CCc3sccc32)CC1 [Pizotifen malate] this time
False

Same question, CN1CCCN(C(c2ccccc2)c2ccc(Cl)cc2)CC1 (centres undefined) [Homochlorcyclizine dihydrochloride] this time
False

Same question, O=C(O)c1ccccc1C(=O)Nc1ccc(S(=O)(=O)Nc2nccs2)cc1 this time
False

Same question, CCC(C)(CN(C)C)OC(=O)c1ccccc1 (centres undefined) [Amyleine hydrochloride] this time
False

Same question, CC(C)(C)CC(C)(C)c1ccc(O)c(Cc2ccc(Cl)cc2Cl)c1 this time
False

Same question, Cc1c(Cl)cccc1Nc1ncccc1C(=O)O [Clonixin lysinate] this time
False

Same question, COc1ccccc1OCCNCC(O)COc1cccc2[nH]c3ccccc3c12 (centres undefined) this time
False
